Reference source for all entries: the supplement of paper PMC6555819

Below: a set of entries, each annotated with reported PBM binding z-score.
System: PXR homodimer (NR concentration 270 nM)
measurement-description: PBM binding z-score (relative to random genomic background probes); higher = stronger binding; sequences stand for … in GC…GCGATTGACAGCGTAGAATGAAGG
Please reply with the number alone, leaving off any unit.

These recorded examples may help you get a feel for the data.
| monomer-sequence | observed-measurement |
| --- | --- |
| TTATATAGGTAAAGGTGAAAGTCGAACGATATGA | 0.227 |
| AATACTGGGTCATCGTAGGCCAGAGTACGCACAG | 0.428 |
| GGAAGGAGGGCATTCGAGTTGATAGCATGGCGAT | 1.3 |
| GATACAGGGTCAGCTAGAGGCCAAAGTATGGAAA | 0.247 |
| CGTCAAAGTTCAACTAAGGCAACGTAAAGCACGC | 4.13 |

With those in mind, consider the next sequence.
So what's the measured PBM binding z-score for this one? `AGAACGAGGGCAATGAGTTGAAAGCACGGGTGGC`
5.02

---

System: RXRa DBDmut IVT, anti-RXR (DBD mutation: RXRa K156A/R161A, NR concentration 90 nM)
measurement-description: PBM binding z-score (relative to random genomic background probes); higher = stronger binding; sequences stand for … in GC…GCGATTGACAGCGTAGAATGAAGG
Below: a set of entries, each annotated with reported PBM binding z-score.
Please reply with the number alone, leaving off any unit.

These recorded examples may help you get a feel for the data.
| monomer-sequence | readout-name | observed-measurement |
| --- | --- | --- |
| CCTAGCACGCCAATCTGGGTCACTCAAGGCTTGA | PBM binding z-score | 0.349 |
| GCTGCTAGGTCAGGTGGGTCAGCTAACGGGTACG | PBM binding z-score | 0.0363 |

With those in mind, consider the next sequence.
So what's the measured PBM binding z-score for this one? `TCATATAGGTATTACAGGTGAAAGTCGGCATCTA`
1.81

---

System: PPARg:RXRa 90nM:30nM, anti-RXR (NR concentration 90 nM, RXRa partner concentration 30 nM)
measurement-description: PBM binding z-score (relative to random genomic background probes); higher = stronger binding; sequences stand for … in GC…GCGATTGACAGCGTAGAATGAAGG
Below: a set of entries, each annotated with reported PBM binding z-score.
Please reply with the number alone, leaving off any unit.

These recorded examples may help you get a feel for the data.
| monomer-sequence | PBM binding z-score |
| --- | --- |
| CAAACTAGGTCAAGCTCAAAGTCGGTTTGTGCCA | 7.27 |
| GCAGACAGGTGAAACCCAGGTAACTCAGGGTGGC | -0.524 |

So what's the measured PBM binding z-score for this one? `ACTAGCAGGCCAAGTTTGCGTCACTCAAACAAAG`
-0.227

---

System: PPARg:RXRa (NR concentration 180 nM, RXRa partner concentration 90 nM)
measurement-description: PBM binding z-score (relative to random genomic background probes); higher = stronger binding; sequences stand for … in GC…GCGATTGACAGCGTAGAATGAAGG
readout-name: PBM binding z-score
Please reply with the number alone, leaving off any unit.

| monomer-sequence | readout-name | observed-measurement |
| --- | --- | --- |
| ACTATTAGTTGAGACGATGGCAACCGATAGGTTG | PBM binding z-score | 0.598 |

So what's the measured PBM binding z-score for this one? `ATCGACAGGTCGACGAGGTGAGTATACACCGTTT`
1.11

Now the same for `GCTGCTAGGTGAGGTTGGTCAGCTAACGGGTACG`
-0.331

Now the same for `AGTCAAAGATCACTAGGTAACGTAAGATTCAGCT`
2.34

Now the same for `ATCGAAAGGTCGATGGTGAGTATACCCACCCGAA`
1.48

Now the same for `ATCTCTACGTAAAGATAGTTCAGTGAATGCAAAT`
0.493

---

System: RARb:RXRa (NR concentration 270 nM, RXRa partner concentration 90 nM)
measurement-description: PBM binding z-score (relative to random genomic background probes); higher = stronger binding; sequences stand for … in GC…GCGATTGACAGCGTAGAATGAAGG
Below: a set of entries, each annotated with reported PBM binding z-score.
Please reply with the number alone, leaving off any unit.

| monomer-sequence | observed-measurement |
| --- | --- |
| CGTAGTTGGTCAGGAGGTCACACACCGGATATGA | 3.54 |
| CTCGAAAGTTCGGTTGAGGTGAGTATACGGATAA | 1.55 |
| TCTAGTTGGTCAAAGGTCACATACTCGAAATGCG | 4.83 |

With those in mind, consider the next sequence.
So what's the measured PBM binding z-score for this one? `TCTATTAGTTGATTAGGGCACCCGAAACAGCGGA`
0.873

---

Test system: PXR:RXRa (NR concentration 270 nM, RXRa partner concentration 90 nM)
measurement-description: PBM binding z-score (relative to random genomic background probes); higher = stronger binding; sequences stand for … in GC…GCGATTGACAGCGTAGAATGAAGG
The threshold is inclusive: PBM binding z-score of exactly 0.7 counts as true (1); values below receive false (0).

Entry `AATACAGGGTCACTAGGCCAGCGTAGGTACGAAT` : is its PBM binding z-score no less than 0.7?
true (1)

Now the same for `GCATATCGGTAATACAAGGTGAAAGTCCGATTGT`
false (0)

Now the same for `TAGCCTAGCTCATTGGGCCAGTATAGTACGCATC`
false (0)

Now the same for `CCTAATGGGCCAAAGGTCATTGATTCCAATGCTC`
true (1)

Now the same for `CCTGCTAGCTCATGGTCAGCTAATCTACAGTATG`
false (0)

Now the same for `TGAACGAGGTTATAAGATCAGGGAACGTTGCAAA`
false (0)

---

System: PPARg:RXRa 270nM:90nM, anti-RXR (NR concentration 270 nM, RXRa partner concentration 90 nM)
measurement-description: PBM binding z-score (relative to random genomic background probes); higher = stronger binding; sequences stand for … in GC…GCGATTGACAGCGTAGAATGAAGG
The threshold is inclusive: PBM binding z-score of exactly 3 counts as true (1); values below receive false (0).

| monomer-sequence | qualitative-label |
| --- | --- |
| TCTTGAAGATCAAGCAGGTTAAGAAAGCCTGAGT | false (0) |
| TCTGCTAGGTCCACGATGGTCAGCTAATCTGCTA | false (0) |
| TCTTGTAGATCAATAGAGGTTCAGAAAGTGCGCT | false (0) |
| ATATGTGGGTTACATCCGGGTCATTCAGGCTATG | true (1) |
| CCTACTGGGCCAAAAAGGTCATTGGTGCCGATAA | true (1) |
| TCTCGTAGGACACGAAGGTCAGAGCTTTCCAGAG | false (0) |
| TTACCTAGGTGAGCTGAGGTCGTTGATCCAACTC | false (0) |
| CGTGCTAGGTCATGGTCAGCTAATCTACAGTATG | false (0) |

Entry `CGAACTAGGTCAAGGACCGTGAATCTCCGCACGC` : is its PBM binding z-score no less than 3?
true (1)

Now the same for `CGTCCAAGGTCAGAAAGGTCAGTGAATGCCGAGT`
true (1)

Now the same for `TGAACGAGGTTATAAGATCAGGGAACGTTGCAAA`
false (0)

Now the same for `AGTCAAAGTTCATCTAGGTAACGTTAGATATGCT`
true (1)

---

Test system: PPARg:RXRa 270nM:90nM, anti-RXR (NR concentration 270 nM, RXRa partner concentration 90 nM)
measurement-description: PBM binding z-score (relative to random genomic background probes); higher = stronger binding; sequences stand for … in GC…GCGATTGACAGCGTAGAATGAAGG
The threshold is inclusive: PBM binding z-score of exactly 2 counts as Satisfied; values below receive Not satisfied.

Entry `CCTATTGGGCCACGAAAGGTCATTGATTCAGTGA` : is its PBM binding z-score no less than 2?
Satisfied

Now the same for `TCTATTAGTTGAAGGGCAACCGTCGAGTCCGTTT`
Satisfied

Now the same for `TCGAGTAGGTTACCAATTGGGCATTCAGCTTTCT`
Not satisfied

Now the same for `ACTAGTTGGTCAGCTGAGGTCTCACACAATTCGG`
Not satisfied

Now the same for `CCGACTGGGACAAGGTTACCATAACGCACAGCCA`
Satisfied

Now the same for `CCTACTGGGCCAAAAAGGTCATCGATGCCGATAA`
Satisfied

Now the same for `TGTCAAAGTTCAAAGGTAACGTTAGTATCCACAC`
Satisfied

Now the same for `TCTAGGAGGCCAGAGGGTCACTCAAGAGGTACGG`
Satisfied

Now the same for `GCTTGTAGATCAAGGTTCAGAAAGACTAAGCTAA`
Satisfied

Now the same for `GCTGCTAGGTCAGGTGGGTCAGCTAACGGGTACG`
Not satisfied

Now the same for `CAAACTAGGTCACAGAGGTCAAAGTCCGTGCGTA`
Satisfied

Now the same for `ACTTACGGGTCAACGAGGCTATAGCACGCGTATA`
Satisfied

Now the same for `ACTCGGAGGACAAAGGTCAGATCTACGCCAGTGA`
Satisfied

Now the same for `TCTAGCAGGCCAGACGGTCACTCAAGAGGTACGG`
Not satisfied
